Hey, just so you know, these numbers are from patent US11286268B1.

# testedTarget: recombinant eIF4E (Homo sapiens (Human))
# Sequence (P06730 whole entry): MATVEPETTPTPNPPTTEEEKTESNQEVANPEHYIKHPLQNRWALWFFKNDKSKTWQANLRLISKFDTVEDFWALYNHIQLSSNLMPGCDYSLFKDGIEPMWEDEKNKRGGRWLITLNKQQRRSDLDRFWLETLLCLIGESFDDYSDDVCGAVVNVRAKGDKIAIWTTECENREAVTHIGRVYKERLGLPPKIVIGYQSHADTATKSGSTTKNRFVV
# assayRemarks: Fluorescence polarization competition assay for eIF4E binding potency
# measurementParameters: inhibition of eIF4E/EDA-m7GDP-ATTO-550 binding by 50%; Table 4B calculated values; read-out: IC50
# Procedure: Compounds were screened for eIF4E binding potency using a fluorescence polarization competition assay. All binding reactions were performed in fluorescence polarization buffer (FPB) containing 20 mM Tris pH 7.5, 100 mM NaCl, 1 mM DTT, and 0.02% Tween-20. Final binding reactions contained 75 nM recombinant eIF4E (Beryllium, custom order), 20 nM EDA-m^7GDP-ATTO-550 (Jena Bioscience, NU-827-550) and varying concentrations of the inhibitory compound of interest. […]
Friendly reminder: IC50 below 20 nM is condition met, at or above is condition not met.

Does the reported IC50 of the following molecule sit strictly below 20 nM? Cc1nc2cnc(C3CC3)c(C#N)c2c(=O)n1CC#Cc1ccc(Cl)cc1-c1ccnc2c(C(=O)O)csc12
condition not met

Does the reported IC50 of the following molecule sit strictly below 20 nM? Cc1nc2cc(C(F)(F)F)c(N3CCN(CCF)CC3)c(C#N)c2c(=O)n1CCOc1ccc(Cl)cc1-c1ccnc2c(C(=O)O)csc12
condition met

Does the reported IC50 of the following molecule sit strictly below 20 nM? Cc1cc(-c2ncc3nc(C)n(CCOc4ccc(Cl)cc4-c4cc(C)nc5c(C(=O)O)csc45)c(=O)c3c2C#N)cc(C)n1
condition met

Does the reported IC50 of the following molecule sit strictly below 20 nM? Cc1cc(-c2cc(Cl)ccc2OCCn2c(C)nc3cc(C(F)(F)F)c(-c4ccc(Cl)nc4)c(C#N)c3c2=O)c2scc(C(=O)O)c2n1
condition met

Does the reported IC50 of the following molecule sit strictly below 20 nM? COc1ccc(-c2cc(Cl)ccc2OCCn2c(C)nc3c(C)ncc(C#N)c3c2=O)c2scc(C(=O)O)c12
condition not met

Does the reported IC50 of the following molecule sit strictly below 20 nM? Cc1c(C(F)F)c2cc(C(F)(F)F)cc(C#N)c2c(=O)n1CCOc1ccc(Cl)cc1-c1ccnc2c(C(=O)O)csc12
condition met

Does the reported IC50 of the following molecule sit strictly below 20 nM? CNC(=O)c1cc2c(=O)n(CCOc3ccc(Cl)cc3-c3cccc(C(=O)O)c3)cnc2cn1
condition not met

Does the reported IC50 of the following molecule sit strictly below 20 nM? Cc1nc2cc(C(F)(F)F)cc(C#N)c2c(=O)n1CCOc1ccccc1-c1ccnc2c(C(=O)O)csc12
condition not met

Does the reported IC50 of the following molecule sit strictly below 20 nM? Cc1nc2cc(C(F)(F)F)c(CN3CCC(F)(F)CC3)c(C#N)c2c(=O)n1CCOc1ccc(Cl)cc1-c1ccnc2c(C(=O)O)csc12
condition not met

Does the reported IC50 of the following molecule sit strictly below 20 nM? Cc1cc(-c2cc(Cl)ccc2OCCn2c(C)nc3cc(Cl)c(-c4ccc(N(C)C)nc4)c(C#N)c3c2=O)c2scc(C(=O)O)c2n1
condition met

Does the reported IC50 of the following molecule sit strictly below 20 nM? Cn1nc(C(=O)O)cc1-c1cc(Cl)ccc1OCCn1cnc2cnc(C#N)cc2c1=O
condition not met

Does the reported IC50 of the following molecule sit strictly below 20 nM? Cc1cc(-c2cc(Cl)ccc2OCCn2c(C)nc3c(C)nc(-c4cccc(F)c4)c(C#N)c3c2=O)c2scc(C(=O)O)c2n1
condition met

Does the reported IC50 of the following molecule sit strictly below 20 nM? N#Cc1cc2c(=O)n(CCOc3ccc(Cl)cc3-c3cncc(C(=O)O)n3)cnc2cn1
condition not met

Does the reported IC50 of the following molecule sit strictly below 20 nM? C#Cc1c(C(=O)O)cccc1-c1cc(Cl)ccc1OCCn1c(C(F)F)nc2cccc(C#N)c2c1=O
condition not met

Does the reported IC50 of the following molecule sit strictly below 20 nM? Cc1nc2cc(C(F)(F)F)c(N3CCN(CC(F)(F)F)CC3)c(C#N)c2c(=O)n1CCOc1ccc(Cl)cc1-c1ccnc2c(C(=O)O)csc12
condition not met

Does the reported IC50 of the following molecule sit strictly below 20 nM? Cc1nc2cc(C(F)(F)F)cc(C#N)c2c(=O)n1CCOc1ccc(Cl)cc1-c1ccnc2c(C(=O)O)c[nH]c12
condition not met

Does the reported IC50 of the following molecule sit strictly below 20 nM? Cc1cc(-c2cc(Cl)ccc2C#CCn2c(C)nc3cc(C(F)(F)F)c(-c4ccncn4)c(C#N)c3c2=O)c2scc(C(=O)O)c2n1
condition met

Does the reported IC50 of the following molecule sit strictly below 20 nM? Cc1cc(-c2cc(Cl)ccc2OCCn2c(C)nc3cc(C(F)(F)F)c(-c4nccnc4C(F)(F)F)nc3c2=O)c2scc(C(=O)O)c2n1
condition not met

Does the reported IC50 of the following molecule sit strictly below 20 nM? Cc1cc(-c2cc(Cl)ccc2OCCn2c(C)nc3cc(OC(F)F)cc(C#N)c3c2=O)c2scc(C(=O)NS(C)(=O)=O)c2n1
condition not met

Does the reported IC50 of the following molecule sit strictly below 20 nM? Cc1cc(-c2cc(Cl)ccc2OCCn2c(C)nc3cc(C(F)(F)F)c(C#N)nc3c2=O)c2scc(C(=O)O)c2n1
condition met

Does the reported IC50 of the following molecule sit strictly below 20 nM? Cc1nc2cc(CN(C)C)c(OC(F)F)c(C#N)c2c(=O)n1CCOc1ccc(Cl)cc1-c1cccc(C(=O)O)c1
condition met

Does the reported IC50 of the following molecule sit strictly below 20 nM? N#Cc1cccc2nc(C(F)F)n(CCOc3ccc(Cl)cc3-c3ccc(C(=O)O)c4ccsc34)c(=O)c12
condition not met

Does the reported IC50 of the following molecule sit strictly below 20 nM? Cc1nc2cnc(N(C)C3CCN(C4CCC4(F)F)CC3)c(C#N)c2c(=O)n1CC#Cc1ccc(Cl)cc1-c1ccnc2c(C(=O)O)csc12 (centres unmarked)
condition not met

Does the reported IC50 of the following molecule sit strictly below 20 nM? CN1c2cc(C(F)(F)F)cc(C#N)c2C(=O)N(CCOc2ccc(Cl)cc2-c2ccnc3c(C(=O)O)csc23)C1(C)C
condition not met

Does the reported IC50 of the following molecule sit strictly below 20 nM? CCc1cc(-c2cc(Cl)ccc2OCCn2c(C)nc3cc(C(F)(F)F)c(N4CCN(C)CC4)nc3c2=O)c2scc(C(=O)O)c2n1
condition met

###

# testedTarget: recombinant eIF4E (Homo sapiens (Human))
# assayRemarks: Fluorescence polarization competition assay for eIF4E binding potency
# measurementParameters: inhibition of eIF4E/EDA-m7GDP-ATTO-550 binding by 50%; Table 4B calculated values; read-out: IC50
readoutType: IC50 (nM)
Answer in nM, number only, no unit symbol.

# IC50 lookup, item Cc1nc2cnc(/C=C/C3(N(C)C)CC3)c(C#N)c2c(=O)n1CCOc1ccc(Cl)cc1-c1ccnc2c(C(=O)O)csc12
21.5

# IC50 lookup, item Cc1nc2cc(Cl)c(Cl)c(C#N)c2c(=O)n1CCOc1ccc(Cl)cc1-c1ccnc2c(C(=O)O)csc12
21.3

# IC50 lookup, item Cc1nc2cc(Cl)c(Cl)c(C#N)c2c(=O)n1C/C=C/c1ccc(Cl)cc1-c1ccnc2c(C(=O)O)csc12
104

# IC50 lookup, item N#Cc1cccc2c(=O)n(CCOc3ccc(Cl)cc3-c3cccc(C(=O)O)c3)cnc12
1400

###

I'd be grateful if you could share measured IC50 for these entries.
# testedTarget: recombinant eIF4E (Homo sapiens (Human))
# assayRemarks: Fluorescence polarization competition assay for eIF4E binding potency
# measurementParameters: inhibition of eIF4E/EDA-m7GDP-ATTO-550 binding by 50%; Table 4B calculated values; read-out: IC50
Answer in nM, number only, no unit symbol.

# IC50 lookup, item Cc1cc(-c2cc(Cl)ccc2OCCn2c(C)nc3cc(C(F)(F)F)c(CC4CNC4)c(C#N)c3c2=O)c2scc(C(=O)O)c2n1
4.08

# IC50 lookup, item Cc1nc2cnc(C3CCC(F)(F)CC3)c(C#N)c2c(=O)n1CCOc1ccc(Cl)cc1-c1ccnc2c(C(=O)O)csc12
20.4

# IC50 lookup, item Cc1nc2c(F)cc(C(F)F)c(C#N)c2c(=O)n1CCOc1ccc(Cl)cc1-c1ccnc2c(C(=O)O)csc12
24.9

# IC50 lookup, item Cc1nc2cnc(N(C)C3CCN(CC(=O)C4CC4)CC3)c(C#N)c2c(=O)n1CCOc1ccc(Cl)cc1-c1ccnc2c(C(=O)O)csc12
23.9

# IC50 lookup, item Cc1cc(-c2cc(Cl)ccc2OCCn2c(C)nc3cnc(NCC(F)(F)F)c(C#N)c3c2=O)c2scc(C(=O)O)c2n1
9.77

# IC50 lookup, item N#Cc1cc2c(=O)n(CCOc3ccc(Cl)cc3-c3cnc(C(F)F)c(C(=O)O)c3)cnc2cn1
19200

# IC50 lookup, item Cc1nc2cc(C(=O)N(C)C)cc(C#N)c2c(=O)n1CCOc1ccc(Cl)cc1-c1ccnc2c(C(=O)O)csc12
34.6

# IC50 lookup, item Cc1nc2ccc(Cl)c(C#N)c2c(=O)n1CCOc1ccc(Cl)cc1-c1cccc(C(=O)O)c1
44.2

# IC50 lookup, item Cc1cc(-c2cc(Cl)ccc2OCCn2c(C)nc3cc(C(F)(F)F)c(N4CCS(=O)(=O)CC4)c(C#N)c3c2=O)c2scc(C(=O)O)c2n1
6.61

# IC50 lookup, item Cc1nc2cc(C(F)F)c(C(F)F)c(C#N)c2c(=O)n1CCOc1ccc(Cl)cc1-c1cccc(C(=O)O)c1
62.5

# IC50 lookup, item Cc1nc2cc(C(F)(F)F)cc(C#N)c2c(=O)n1CCOc1ccc(Cl)cc1-c1ccnc2c(O)csc12
332

# IC50 lookup, item Cc1nc2cnc(N(C)C3CCN(CC(F)(F)F)CC3)c(C#N)c2c(=O)n1CC#Cc1ccc(Cl)cc1-c1ccnc2c(C(=O)O)csc12
6.14

# IC50 lookup, item Cc1cc(-c2cc(Cl)ccc2OCCn2c(C)nc3cc(Cl)c(C4CCC4)c(C#N)c3c2=O)c2scc(C(=O)O)c2n1
21.2
